The values you see were collected from PubChem BioAssay (NCI).

As shown below, each of these compounds has a reported TGI value.
- Test system: SW-620 colon
- Run Description: NCI tumour cell line growth inhibition, 48 h

Compound	TGI
O=C1c2cccnc2C(=O)c2c1c(C(=O)NCCCN1CCCCC1)c1ccccn21	2.14 µM
O=C1c2ccccc2-c2cc([N+](=O)[O-])c([N+](=O)[O-])cc21	> 21.1 µM
CCCCCCCCCCCCCCCCCC1=NCCN1CCOC1=C(Cl)C(=O)c2ccccc2C1=O	3.41 µM
C/C=C1\CN2CCc3c([nH]c4ccccc34)C2CC1C(=O)OC (stereo not given)	> 322 µM
COc1cc2c(cc1OCCCn1c(-c3ccccn3)nc3ccccc31)N=C[C@@H]1CCCN1C2=O	8.33 µM
Cc1c(/C=N/N=C/c2[nH]c(C(=O)OC(C)(C)C)c(C)c2C)[nH]c(C(=O)OC(C)(C)C)c1C	> 100 µM
O=C(CCCN1CCC2(CC1)CC(c1ccccc1)OC2=O)c1ccc(F)cc1 (stereo not given)	> 100 µM
O=C(OCc1ccc2ccccc2n1)c1cn(C2CC2)c2cc(N3CCN(Cc4ccc5ccccc5n4)CC3)c(F)cc2c1=O	> 100 µM
COc1ccc(-c2cc(Cc3cccs3)c(=O)[nH]n2)cc1	> 100 µM
COc1cc(N2C(=O)[C@H](O)C2c2ccc(SC)cc2)cc(OC)c1OC (stereo not given in full)	> 100 µM
